Target: Bile acid receptor (Homo sapiens) (UniProt Q96RI1)
Sequence (Q96RI1 whole entry, looked up): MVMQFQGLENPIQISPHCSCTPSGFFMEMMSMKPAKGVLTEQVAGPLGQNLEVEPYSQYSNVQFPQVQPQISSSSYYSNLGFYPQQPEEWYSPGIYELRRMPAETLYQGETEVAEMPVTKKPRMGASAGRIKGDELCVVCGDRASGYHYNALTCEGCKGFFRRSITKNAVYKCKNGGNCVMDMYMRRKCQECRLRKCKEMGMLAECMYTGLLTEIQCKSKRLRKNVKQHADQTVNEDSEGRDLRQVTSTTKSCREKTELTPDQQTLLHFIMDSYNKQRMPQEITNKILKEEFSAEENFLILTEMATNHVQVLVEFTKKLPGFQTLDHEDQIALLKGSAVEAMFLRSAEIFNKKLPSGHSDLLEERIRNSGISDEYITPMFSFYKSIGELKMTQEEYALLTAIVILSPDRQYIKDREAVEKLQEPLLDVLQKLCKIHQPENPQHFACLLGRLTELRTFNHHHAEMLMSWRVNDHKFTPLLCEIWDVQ
Test: OT_FXR_FXRSRC1_0480: Odyssey Thera (OT) 8-hour HEK293T Protein-Complementation Assay for Farnesoid X receptor/SRC-1 Co-activator (AID 2283383)
Records with an inconclusive call do not appear. Calls of active or inactive are those of the source. The calls were made as follows: active = hit-call score of the fitted dose curve at least 0.9, where 1 is the maximum; inconclusive = response in the unintended direction; inactive = score below 0.9.
Reported endpoint: AC50

Below are worked cases with known answers.
> print(dat)
                                   compound                             tested.target  reported.endpoint        test.value
1                      CNC(=O)ON=CC(C)(C)SC  Bile acid receptor (Homo sapiens) (UniProt Q96RI1)               AC50          inactive
2  C=CCC1=C(C)C(OC(=O)C2C(C=C(C)C)C2(C)C)CC1=O (configuration not stated)  Bile acid receptor (Homo sapiens) (UniProt Q96RI1)               AC50  14.9 µM (active)
3  C=CC1(C)OC(=O)N(c2cc(Cl)cc(Cl)c2)C1=O (configuration not stated)  Bile acid receptor (Homo sapiens) (UniProt Q96RI1)               AC50          inactive
4   COP(N)(=O)SC (configuration not stated)  Bile acid receptor (Homo sapiens) (UniProt Q96RI1)               AC50          inactive
5  CCCCC(CC)COC(=O)c1ccccc1C(=O)OCC(CC)CCCC (configuration not stated)  Bile acid receptor (Homo sapiens) (UniProt Q96RI1)               AC50          inactive
6  C#CCOS(=O)OC1CCCCC1Oc1ccc(C(C)(C)C)cc1 (configuration not stated)  Bile acid receptor (Homo sapiens) (UniProt Q96RI1)               AC50  21.4 µM (active)

Field AC50 (entry Cc1c(F)c(F)c(COC(=O)C2C(/C=C(\Cl)C(F)(F)F)C2(C)C)c(F)c1F (configuration not stated) ) reads inactive

Origin of the recorded values: PubChem BioAssay (EPA / NIEHS)
